molecular target: IgG; assay: SPR, IgG immobilised on CM5 chip, compound as analyte; value from the legend of the grade (**** = Kd <100 nM)
*1 amine or outer side, *2 acyl side, *3 side chain or, on linkers, in order; H or OH if unused. Bridges are numbered along the chain shown (N, C = ends). [ ]: non-standard residue; d: D form. N5,N5‑dimethylglutamine = CN(C)C(=O)CC[C@H](N[*:1])C(=O)[*:2]; Pro(4S-NH2) = N[C@@H]1CN[C@H](C(=O)O)C1
Kd reference

Example results:
The recorded Kd for entry cyclo([Pro(4S-NH2)]DCSWHLGELVWCT[dP]) (disulfide 3-13; SMILES CC(C)C[C@@H]1NC(=O)[C@H](Cc2c[nH]cn2)NC(=O)[C@H](Cc2c[nH]c3ccccc23)NC(=O)[C@H](CO)NC(=O)[C@@H]2CSSC[C@H](NC(=O)[C@H](Cc3c[nH]c4ccccc34)NC(=O)[C@H](C(C)C)NC(=O)[C@H](CC(C)C)NC(=O)[C@H](CCC(=O)O)NC(=O)CNC1=O)C(=O)N[C@@H]([C@@H](C)O)C(=O)N1CCC[C@@H]1C(=O)N1C[C@@H](N)C[C@H]1C(=O)N[C@@H](CC(=O)O)C(=O)N2) [Intermediate 14] equals < 100 nM

The recorded Kd for entry PDCAWHLGELVWCTP (residue 1 = (2S,4S)-4-aminoproline; residue 12 = 6-chlorotryptophan; residue 15 = D-Pro; backbone cyclised head to tail; disulfide Cys3-Cys13) [Intermediate 19] equals < 100 nM

The recorded Kd for entry cyclo(PDCAWHLGELVWCT[dP]) (disulfide 3-13; not fully specified (residue 1)) [Intermediate 30] equals < 100 nM

The recorded Kd for entry cyclo(PDCAWHLGELVWCT[dP]) (disulfide 3-13; not fully specified (residue 1); also: conjugate from starting material A139) [Compound 67] equals < 100 nM

The recorded Kd for entry cyclo(PDCAWHLGELVWCT[dP]) (disulfide 3-13; not fully specified (residue 1); also: conjugate: hex-5-ynoyl peptide clicked to azide A18) [Compound 53] equals < 100 nM

The recorded Kd for entry cyclo(PDCAWHLGELVWCT[dP]) (disulfide 3-13; not fully specified (residue 1); also: conjugate from starting material A144) [Compound 72] equals < 100 nM

Further cases:
The recorded Kd for entry cyclo([Pro(4S-NH2)]ACAWHLGALVWCT[dP]) (disulfide 3-13; SMILES CC(C)C[C@@H]1NC(=O)[C@H](C)NC(=O)CNC(=O)[C@H](CC(C)C)NC(=O)[C@H](Cc2c[nH]cn2)NC(=O)[C@H](Cc2c[nH]c3ccccc23)NC(=O)[C@H](C)NC(=O)[C@@H]2CSSC[C@H](NC(=O)[C@H](Cc3c[nH]c4ccccc34)NC(=O)[C@H](C(C)C)NC1=O)C(=O)N[C@@H]([C@@H](C)O)C(=O)N1CCC[C@@H]1C(=O)N1C[C@@H](N)C[C@H]1C(=O)N[C@@H](C)C(=O)N2) [Intermediate 25] equals < 100 nM

The recorded Kd for entry PDCAWHLGELVWCTP (residue 1 = (2S,4S)-4-aminoproline; residue 15 = D-Pro; backbone cyclised head to tail; disulfide Cys3-Cys13; 4-amino group of residue 1 acylated with PEG4-propanoyl capped by hex-5-ynamide) [Intermediate 4] equals < 100 nM

The recorded Kd for entry cyclo(PDCAWHLGELVWCT[dP]) (disulfide 3-13; not fully specified (residue 1); also: linker and ASGPR ligand(s) not given here) [Compound 92] equals < 100 nM

The recorded Kd for entry cyclo(PD[(S)‑2‑aminohex‑5‑enoic acid]AWHLGELVW[(S)‑2‑aminopent‑4‑enoic acid]T[dP]) (staple 3-13) [Intermediate 31] equals < 100 nM

The recorded Kd for entry cyclo([Pro(4S-NH2)]NCAWHLGELVWCT[dP]) (disulfide 3-13; SMILES CC(C)C[C@@H]1NC(=O)[C@H](Cc2c[nH]cn2)NC(=O)[C@H](Cc2c[nH]c3ccccc23)NC(=O)[C@H](C)NC(=O)[C@@H]2CSSC[C@H](NC(=O)[C@H](Cc3c[nH]c4ccccc34)NC(=O)[C@H](C(C)C)NC(=O)[C@H](CC(C)C)NC(=O)[C@H](CCC(=O)O)NC(=O)CNC1=O)C(=O)N[C@@H]([C@@H](C)O)C(=O)N1CCC[C@@H]1C(=O)N1C[C@@H](N)C[C@H]1C(=O)N[C@@H](CC(N)=O)C(=O)N2) [Intermediate 13] equals < 100 nM

The recorded Kd for entry cyclo([Pro(4S-NH2)]DCAWHLG[N5,N5‑dimethylglutamine]LVWCT[dP]) (disulfide 3-13; SMILES CC(C)C[C@@H]1NC(=O)[C@H](Cc2c[nH]cn2)NC(=O)[C@H](Cc2c[nH]c3ccccc23)NC(=O)[C@H](C)NC(=O)[C@@H]2CSSC[C@H](NC(=O)[C@H](Cc3c[nH]c4ccccc34)NC(=O)[C@H](C(C)C)NC(=O)[C@H](CC(C)C)NC(=O)[C@H](CCC(=O)N(C)C)NC(=O)CNC1=O)C(=O)N[C@@H]([C@@H](C)O)C(=O)N1CCC[C@@H]1C(=O)N1C[C@@H](N)C[C@H]1C(=O)N[C@@H](CC(=O)O)C(=O)N2) [Intermediate 23] equals < 100 nM
